System: PPARg:RXRa DBDmut IVT, anti-RXR (DBD mutation: RXRa K156A/R161A, NR concentration 270 nM, RXRa partner concentration 90 nM)
Assay: PBM binding z-score (relative to random genomic background probes); higher = stronger binding; sequences stand for … in GC…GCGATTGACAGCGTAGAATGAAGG
Binning scheme for PBM binding z-score: small value (below 0.8), mid value (0.8 to below 2), large value (2 or more)

Recorded results for 5 sequences are shown here.
> print(dat)
                        sequence.code  group.label
1  CCTCGGAGGACAGAAGGACAGAGCTGTCCGCTTT  small value
2  CATACAGGGTCAGCCAGGCCAGAGTAGGGACGGC    mid value
3  TTACCAAGGTGAGCTGAGGTCGTTGAGCCAACTC    mid value
4  ATCTCTAGGTAAAGATAGTTCAGTGTATGCAAAT    mid value
5  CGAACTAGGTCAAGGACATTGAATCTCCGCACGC  large value

Prompt: Class? Entry: TGTCAAAGTTCAAAGGTAACGCAAGTATCCACAC
Response: small value

Prompt: Class? Entry: CAGCCTAGGTCAGGACCAGTATAGGAGGAACGTT
Response: mid value

Prompt: Class? Entry: ACTAGCAGGCCAAGGGTCACTGAAGATTAGTCCG
Response: mid value

Prompt: Class? Entry: ATATGTAGGTTTGCTGGGGTCATTCAGACTAGGC
Response: large value

Prompt: Class? Entry: ATAGAAAGGTCGACGAGGTGAGTATACACCGTTT
Response: small value

Prompt: Class? Entry: CATACAGGGTCAGCTCGGCCAGAGTAGGGACGGC
Response: small value

* * *

Tested on: RXRa DBDmut IVT, anti-RXR (DBD mutation: RXRa K156A/R161A, NR concentration 90 nM)
Assay: PBM binding z-score (relative to random genomic background probes); higher = stronger binding; sequences stand for … in GC…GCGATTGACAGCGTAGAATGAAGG
Recorded PBM binding z-score for the following sequences
Reply: number alone, nothing else.

> print(dat)
                        sequence.code                                    target  test.value
1  GCAGACAGCTGAAACGCAGGTAACTCAGGGTGGC  RXRa DBDmut IVT, anti-RXR (DBD mutation: RXRa K156A/R161A, NR concentration 90 nM)      -0.772
2  AGAATGAGGTTATACGTAGATCAGGGAGGAAAGT  RXRa DBDmut IVT, anti-RXR (DBD mutation: RXRa K156A/R161A, NR concentration 90 nM)        1.87
3  TATACAGGGTCAAAGGCCAGACTACGAATGTCGA  RXRa DBDmut IVT, anti-RXR (DBD mutation: RXRa K156A/R161A, NR concentration 90 nM)        3.01

Prompt: Item under review: GGAACGAGGGGATTCGAGTTGATAGCATGGCGAT . Reported PBM binding z-score?
Response: -0.0556

Prompt: Item under review: AGTCAAAGTTCAGTACGAGGTAACGTAAAGCACG . Reported PBM binding z-score?
Response: 3.09

Prompt: Item under review: CTCGAAAGGTCGGTTGAGATGAGTATACGGATAA . Reported PBM binding z-score?
Response: 0.887

Prompt: Item under review: AGTCAAAGTTCAGGACGAGGTAACGGAAAGCACG . Reported PBM binding z-score?
Response: 2.73

* * *

Test system: FXR:RXRa (NR concentration 270 nM, RXRa partner concentration 90 nM)
Assay: PBM binding z-score (relative to random genomic background probes); higher = stronger binding; sequences stand for … in GC…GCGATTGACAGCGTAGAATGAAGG
Binning scheme for PBM binding z-score: low band = under 0.5, middle band = from 0.5 up to 4, high band = 4 and over

> print(dat)
                         sequence.code  group.label
 1  ACTAGCAGGCCAAGGGTCACTCATGATTAGTCCG  middle band
 2  CCTTACGGGTCACTCCAGGTTAAAGCATCGGAGT    high band
 3  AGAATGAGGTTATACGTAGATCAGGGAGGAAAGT  middle band
 4  GCTATTAGTTGAAAGAGCAACCGAATGATTCTCG     low band
 5  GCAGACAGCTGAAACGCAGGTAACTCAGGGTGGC     low band
 6  CCTACTGGGCCATGAGGTCATTGATATCAACGTT  middle band
 7  ATTATTAGTTGACTTAGGGCAACCGATACGACGC  middle band
 8  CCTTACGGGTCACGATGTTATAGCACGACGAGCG    high band
 9  ATCTCTAGGTAGCCAAGTTCAGTGAATGCCGAAC     low band
10  CGTCCAAGGTGATAGGAGGTCAGTGAAGACAGAT  middle band

Prompt: Class? Entry: CGTCCAAGGTCAAATGTCAGTGAAGAGATGACGG
Response: high band

Prompt: Class? Entry: CCTACTGGGCCAAGGTGATTGATCAGTCAAAGCA
Response: low band

Prompt: Class? Entry: GAAACGAGGGCATTCGAGTTGATAGCATGGCGAT
Response: middle band

Prompt: Class? Entry: ACTATTAGTTGACTTAGGGCAACCGCTACGACGC
Response: low band

Prompt: Class? Entry: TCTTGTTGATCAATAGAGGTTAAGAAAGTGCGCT
Response: middle band

Prompt: Class? Entry: CCTAGTTGGTAAAGGTCACACACGCTATAGGTAC
Response: high band

Prompt: Class? Entry: AATCAAAGTTCACTAGGTAACGTAAGATTCAGCT
Response: high band

Prompt: Class? Entry: CGAACGAGCGCATGAGTTGATAGCAAATGCCGAT
Response: low band

Prompt: Class? Entry: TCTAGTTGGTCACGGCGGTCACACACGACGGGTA
Response: middle band

Prompt: Class? Entry: TCTAGCAGGCCAGAGTGTCACTCAAGAGGTACGG
Response: low band

Prompt: Class? Entry: ATCGAAAGCTCGACGAGGTGAGTATACACCGTTT
Response: low band

Prompt: Class? Entry: CTCGAAAGGTCGTGCTCAGGTGAGAATACCAAAC
Response: high band

Prompt: Class? Entry: ATATGTAGGTTATCCGGTCATTCAGTTTGCGCAT
Response: middle band

Prompt: Class? Entry: CCTCAGAGGACAACAGGAGGTCAGAGCTGCCAGA
Response: middle band

Prompt: Class? Entry: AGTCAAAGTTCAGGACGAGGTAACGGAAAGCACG
Response: middle band

* * *

Tested on: PPARg homodimer (NR concentration 180 nM)
Assay: PBM binding z-score (relative to random genomic background probes); higher = stronger binding; sequences stand for … in GC…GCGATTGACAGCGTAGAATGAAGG
Each entry gets not met if its PBM binding z-score stays under 2, and met if its PBM binding z-score is 2 or above.

Recorded results for 3 sequences are shown here.
> print(dat)
                        sequence.code  group.label
1  ATCTCCAGGTAACAAGTTCAGTGAAAGAGAGGAC      not met
2  CAAACTAGGTCAAAGGTCAAATTCGAGCCAACCA          met
3  ACTATTAGTTGACGTAGGGCAACCGATACGACGC      not met

Prompt: Is it the case that ATCTCTAGGTAAAGATAGTTCCGTGAATGCAAAT has PBM binding z-score reaching or exceeding 2?
Response: not met

Prompt: Is it the case that CGTCCTAGGTCAAGGTCAGTGAAAGAGACTCGAA has PBM binding z-score reaching or exceeding 2?
Response: met

Prompt: Is it the case that GCAGACAGGTGAAACGCAGGTAACTCCGGGTGGC has PBM binding z-score reaching or exceeding 2?
Response: not met

* * *

Test system: PPARg homodimer (NR concentration 180 nM)
Test: PBM binding z-score (relative to random genomic background probes); higher = stronger binding; sequences stand for … in GC…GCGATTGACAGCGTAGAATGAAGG
Recorded PBM binding z-score for the following sequences
Reply: number alone, nothing else.

Record excerpt, results attached:
> print(dat)
                        sequence.code  test.value
1  CAAACTAGGTCAAAGGTAAAAGTCGAGCCAACCA        2.75
2  GCTGCTAGATCAACTGATGGTCAGCTAAAGCTCG      -0.483
3  AATACAGCGTCACTAGGCCAGAGTAGGTACGAAT       -0.38
4  GCTTGTAGTTCAAGGTTAAGAAAGACTAAGCTAA       0.358
5  TCTTGTAGATCAATAGGGGTTAAGAAAGTGCGCT        1.01

Query sequence follows.
Prompt: Item under review: CCGAGTAGGTTATGGGCCATTCAGGCAACGGTGA . Reported PBM binding z-score?
Response: 1.06
